- Tested on: HuT78
- protocol: Inhibition of retinoic acid resistant HUT78 cell proliferation
- Type: functional, cell-based
- runConditions: Homo sapiens

[
  {
    "structureAsSmiles": "CC1(C)CCC(C)(C)c2cc(-c3cc(-c4ccc(C(=O)O)cc4)no3)ccc21",
    "IC50 (µM)": 0.8
  }
]

----------
- Test system: K562
- protocol: Inhibition of retinoic acid resistant K562 cell proliferation
- Format: functional, cell-based
- runConditions: Homo sapiens
pIC50: −log10 of the molar value.

[
  {
    "structureAsSmiles": "CC1(C)CCC(C)(C)c2cc(-c3cc(-c4ccc(C(=O)O)cc4)no3)ccc21",
    "pIC50": 5.64
  }
]

----------
compounds and their reported Efficacy
- Tested on: SW 962
- protocol: Percentage efficacy for Beta RARE transactivation in SW962 cells
- Type: functional, Homo sapiens
- Design: concentration or dose not given beside the values

[
  {
    "compound": "CC1(C)CCC(C)(C)c2cc(-c3cc(-c4ccc(C(=O)O)cc4)no3)ccc21",
    "target": "SW 962",
    "unitsText": "%",
    "Efficacy": 97.6
  },
  {
    "compound": "CC1(C)CCC(C)(C)c2cc(-c3cc(-c4ccc(C(=O)O)cc4)on3)ccc21",
    "target": "SW 962",
    "unitsText": "%",
    "Efficacy": 48
  },
  {
    "compound": "CC1(C)CCC(C)(C)c2cc(C3CC(c4ccc(C(=O)O)cc4)=NO3)ccc21 (stereo not given)",
    "target": "SW 962",
    "unitsText": "%",
    "Efficacy": 26.3
  },
  {
    "compound": "CC1(C)CCC(C)(C)c2cc(C3=NOC(c4ccc(C(=O)O)cc4)C3)ccc21 (stereo not given)",
    "target": "SW 962",
    "unitsText": "%",
    "Efficacy": 46.5
  },
  {
    "compound": "CC1(C)CCC(C)(C)c2cc(CNc3ccc(C(=O)O)cc3)ccc21",
    "target": "SW 962",
    "unitsText": "%",
    "Efficacy": 64.5
  }
]
